# experimental_details: Stability of NO-chimera in neutral phosphate buffer
# Type: physicochemical
# recorded_conditions: phosphate buffer 100 mM, pH 7.4, room temperature; HPLC-UV or LC-MS

{"compound": "Cc1ncsc1C(NC(=O)OCCCCO[N+](=O)[O-])c1ccccc1 (stereo not drawn) [compound 43]", "stability in phosphate buffer": "stable"}
{"compound": "Cc1ncsc1C(NC(=O)C1(CO[N+](=O)[O-])CC1)c1ccccc1 (stereo not drawn) [compound 44]", "stability in phosphate buffer": "stable"}
